Data provenance is the RNAGym collection of RNA variant scans (doi:10.7554/elife.90254).

B1: OR4K15 (parent)
chain: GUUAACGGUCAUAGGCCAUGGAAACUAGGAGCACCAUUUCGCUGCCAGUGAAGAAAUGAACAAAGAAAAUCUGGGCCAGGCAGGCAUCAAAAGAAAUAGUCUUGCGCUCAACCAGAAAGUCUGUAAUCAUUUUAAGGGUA

variants of: B1; assay: self-cleavage, relative activity (ratio to wild type); higher = more cleavage; in vitro, sequencing; the parent is a self-cleaving ribozyme
variants and their reported self-cleavage
// no unit, no text: just the number

* GUUAACGGUCAUAGGCCAUGGAAACUAGGAGCACCAUUUCGCUGCCAGUGAAGAAAUGAACAAAGAAAAUCUGGGCCAGGCAGGCAUCAAAAGAAACAGUCUUGCGCUCAACCAGGAAGUCUGUAAUCAUUUUAAGGGUA | 0.77
* GUUAACGGUCAUAGGCCGUGGAAACUAGGAGCACCAUUUCGCUGCCAGUGAAGAAAUGAACAAAGAAAAUCUGGGCCAGGCGGGCAUCAAAAGAAAUAGUCUUGCGCUCAACCAGAAAGUCUGUAAUCAUUUUAAGGGUA | 0.98
* GUUAACGGUCAUAGGCCAUGGAAACUAGGGGCACCAUUUCGCUGCCAGUGAAGAAAUGAACAAAGAAAAUCUGGGCCAGGCAGGCAUCAAAAGAAAUAGUCUUGCGCUCAACCAGAAAGUCUGUAAUCAUUUUAAGGGAA | 1.46
* GUUAACGGUCAUAGGCCAUGUAAACUAGGAGCACCAUUUCGCUGCCAGUGAAGAAAUGAACAAAGAAAAUCUGGGCCAGGCAGGCAUCAAAAGAAAUAGUCCUGCGCUCAACCAGAAAGUCUGUAAUCAUUUUAAGGGUA | 2.03

Please give the measured self-cleavage for this variant: GUUAACGGUCAUAGGCCAUGGAAACUAGGAGCACCAUUUCGCUGCCGGUGAAGAAAUGAACAAAGAAAAUCUGGGCCAGGCAGGCAUCAAAAGAAAUAGUCUUGCGCUCAACCAUAAAGUCUGUAAUCAUUUUAAGGGUA 0.09

Now consider GUUAACGGUCAUAGGCCAUGGAAACUAGGAGCACCAUUUCGCUGCCAGUGAAGAAGUGAACAAAGAAAAUCUGGGCCAGGCAGGCAUCAAAAGAAAUAGUCUUGCGCUCAACCAUAAAGUCUGUAAUCAUUUUAAGGGUA and answer again. 0.03

What do you get for GUUAACGGUCAUAGGCCAUGGAAACUAGGAGCACCAUCUCGCUGCCAGUGAAGAAAUGAACAAAGAAAAUCUGGGCCAGGCAGGCAUCAAAAGAAAUAGUCAUGCGCUCAACCAGAAAGUCUGUAAUCAUUUUAAGGGUA ? 1.44
